# tested-system: T1, human EphA2 (Homo sapiens, UniProt P29317)
# T1 construct: a protein of the extracellular region of each human Eph receptor fused with the SEAP protein and the His tag; made in house; host or cells: Expi293F cells (culture supernatant)
# T1 sequence (P29317 24-537 limits assumed): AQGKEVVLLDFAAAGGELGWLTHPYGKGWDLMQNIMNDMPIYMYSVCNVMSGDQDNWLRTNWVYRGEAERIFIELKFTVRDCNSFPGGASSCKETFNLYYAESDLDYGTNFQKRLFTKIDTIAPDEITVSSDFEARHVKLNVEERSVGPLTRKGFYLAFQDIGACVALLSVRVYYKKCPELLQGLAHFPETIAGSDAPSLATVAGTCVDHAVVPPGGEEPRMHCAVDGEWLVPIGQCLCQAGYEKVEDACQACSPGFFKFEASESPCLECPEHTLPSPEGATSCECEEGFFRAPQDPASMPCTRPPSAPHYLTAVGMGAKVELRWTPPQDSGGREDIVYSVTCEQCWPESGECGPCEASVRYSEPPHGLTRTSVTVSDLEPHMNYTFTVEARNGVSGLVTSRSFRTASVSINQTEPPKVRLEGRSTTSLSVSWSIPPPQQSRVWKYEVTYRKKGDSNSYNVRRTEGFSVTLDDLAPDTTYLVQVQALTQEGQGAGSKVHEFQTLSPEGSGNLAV
# test-method-notes: Selectivity ELISA of humanized antibodies for human Eph receptor
# Assay type: binding
# measurement-conditions: coated protein 1 nM
measured-endpoint: hEphA2-SEAP-: absorbance at 450 nm, percentage with respect to hEphA4-SEAP-His as 100% (%)
Note: unit % is implicit; provide only the numeric part.

Answered cases to consult:
{"molecule": "132 (antibody, V domains shown, synthetic humanized antibody heavy chain variable region sequence; synthetic humanized antibody light chain variable region sequence) VH: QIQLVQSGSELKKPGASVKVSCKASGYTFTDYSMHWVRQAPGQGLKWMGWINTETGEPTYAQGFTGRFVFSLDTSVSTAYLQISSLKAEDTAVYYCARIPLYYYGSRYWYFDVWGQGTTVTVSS VL: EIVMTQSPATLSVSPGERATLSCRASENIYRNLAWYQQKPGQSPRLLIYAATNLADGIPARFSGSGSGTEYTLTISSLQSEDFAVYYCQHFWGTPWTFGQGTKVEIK", "unit-of-measure": "%", "assay-result": 4.8}
{"molecule": "157 (antibody, V domains shown, synthetic humanized antibody heavy chain variable region sequence; synthetic humanized antibody light chain variable region sequence) VH: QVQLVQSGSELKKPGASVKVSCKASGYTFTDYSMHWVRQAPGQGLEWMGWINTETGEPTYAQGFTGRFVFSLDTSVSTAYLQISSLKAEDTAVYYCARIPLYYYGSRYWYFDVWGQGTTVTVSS VL: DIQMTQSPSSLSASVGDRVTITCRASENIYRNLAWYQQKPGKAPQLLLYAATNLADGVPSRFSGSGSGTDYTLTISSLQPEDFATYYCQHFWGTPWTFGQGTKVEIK", "unit-of-measure": "%", "assay-result": 6.3}
{"molecule": "87 (antibody, V domains shown, constant regions without entry; synthetic humanized antibody light chain variable region sequence; synthetic humanized antibody heavy chain variable region sequence) VL: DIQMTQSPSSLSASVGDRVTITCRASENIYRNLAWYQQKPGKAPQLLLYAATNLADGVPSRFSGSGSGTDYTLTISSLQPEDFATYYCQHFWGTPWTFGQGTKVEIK VH: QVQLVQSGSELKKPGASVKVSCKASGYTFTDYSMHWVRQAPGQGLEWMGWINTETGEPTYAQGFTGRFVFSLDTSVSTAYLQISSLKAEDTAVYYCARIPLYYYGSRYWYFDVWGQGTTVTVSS", "unit-of-measure": "%", "assay-result": 5.4}
{"molecule": "145 (antibody, V domains shown, synthetic humanized antibody heavy chain variable region sequence; synthetic humanized antibody light chain variable region sequence) VH: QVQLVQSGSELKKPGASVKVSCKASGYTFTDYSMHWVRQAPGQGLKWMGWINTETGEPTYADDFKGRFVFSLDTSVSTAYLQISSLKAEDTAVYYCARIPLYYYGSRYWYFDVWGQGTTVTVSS VL: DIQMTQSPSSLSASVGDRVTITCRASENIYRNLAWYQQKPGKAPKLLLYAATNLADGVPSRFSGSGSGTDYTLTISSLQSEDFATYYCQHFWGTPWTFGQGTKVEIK", "unit-of-measure": "%", "assay-result": 6.5}
{"molecule": "144 (antibody, V domains shown, synthetic humanized antibody heavy chain variable region sequence; synthetic humanized antibody light chain variable region sequence) VH: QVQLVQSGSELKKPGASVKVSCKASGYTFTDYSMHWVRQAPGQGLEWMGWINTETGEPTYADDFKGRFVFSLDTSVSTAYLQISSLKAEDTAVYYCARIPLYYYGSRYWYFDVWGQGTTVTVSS VL: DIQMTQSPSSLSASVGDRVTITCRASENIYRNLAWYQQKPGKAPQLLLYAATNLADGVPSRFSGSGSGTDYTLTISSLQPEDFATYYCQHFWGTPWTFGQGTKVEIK", "unit-of-measure": "%", "assay-result": 5.6}

Query: Fill in the blank: the reported hEphA2-SEAP-: absorbance at 450 nm, percentage with respect to hEphA4-SEAP-His as 100% of 91 (antibody, V domains shown, constant regions without entry; synthetic humanized antibody light chain variable region sequence; synthetic humanized antibody heavy chain variable region sequence) VL: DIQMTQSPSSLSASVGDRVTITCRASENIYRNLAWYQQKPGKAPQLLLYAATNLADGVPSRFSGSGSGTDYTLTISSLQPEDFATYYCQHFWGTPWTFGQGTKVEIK VH: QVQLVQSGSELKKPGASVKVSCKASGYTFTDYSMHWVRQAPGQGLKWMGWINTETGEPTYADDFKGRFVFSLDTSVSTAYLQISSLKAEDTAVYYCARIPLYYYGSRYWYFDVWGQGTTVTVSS is ____.
Response: 6.1

Query: Fill in the blank: the reported hEphA2-SEAP-: absorbance at 450 nm, percentage with respect to hEphA4-SEAP-His as 100% of 154 (antibody, V domains shown, synthetic humanized antibody heavy chain variable region sequence; synthetic humanized antibody light chain variable region sequence) VH: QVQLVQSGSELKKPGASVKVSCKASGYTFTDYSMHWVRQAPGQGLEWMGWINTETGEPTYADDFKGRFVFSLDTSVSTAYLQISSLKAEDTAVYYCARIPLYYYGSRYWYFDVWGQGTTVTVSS VL: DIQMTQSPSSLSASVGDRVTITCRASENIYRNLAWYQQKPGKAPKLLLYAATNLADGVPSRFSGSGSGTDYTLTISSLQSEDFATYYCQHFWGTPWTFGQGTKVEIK is ____.
Response: 6.2
